- study-system: Human CD137 ECD (human)
- Sequence (chain, as listed by the source limits assumed): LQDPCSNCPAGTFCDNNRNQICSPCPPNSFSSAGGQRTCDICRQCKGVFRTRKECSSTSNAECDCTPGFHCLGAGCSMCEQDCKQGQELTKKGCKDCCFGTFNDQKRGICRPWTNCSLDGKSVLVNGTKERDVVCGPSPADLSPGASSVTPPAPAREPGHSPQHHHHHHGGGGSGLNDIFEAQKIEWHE
- test-description: SPR, vs parent H183/L072
observed-property: fold change of affinity (fold)
Reply numerically in fold, unit not repeated.

binder: dBBDu183H A102N / dBBDu072L (antibody, name in Kabat numbering, V domains shown) VH: QVQLVESGGGLVQPGRSLRLSCAASGFTFSNAWMHWVRQAPGKGLEWVAQIKDKGNAYAAYYAPSVKGRFTISRDDSKNSIYLQMNSLKTEDTAVYYCHYVHYASASTVLPAFGVDNWGQGTTVTVSS VL: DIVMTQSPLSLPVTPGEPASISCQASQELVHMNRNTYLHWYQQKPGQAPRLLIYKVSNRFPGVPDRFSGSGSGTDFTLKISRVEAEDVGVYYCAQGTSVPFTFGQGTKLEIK
readout-value: 0

In the following, a different binder is considered.
# return recorded fold change of affinity for entry dBBDu183H T100bV / dBBDu072L (antibody, name in Kabat numbering, V domains shown) VH: QVQLVESGGGLVQPGRSLRLSCAASGFTFSNAWMHWVRQAPGKGLEWVAQIKDKGNAYAAYYAPSVKGRFTISRDDSKNSIYLQMNSLKTEDTAVYYCHYVHYASASVVLPAFGVDAWGQGTTVTVSS VL: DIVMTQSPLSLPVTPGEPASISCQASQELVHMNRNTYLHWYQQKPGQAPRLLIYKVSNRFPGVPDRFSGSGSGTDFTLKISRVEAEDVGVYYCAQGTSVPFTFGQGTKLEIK
0
